Biological target: SHP2 (Homo sapiens (Human))
Sequence (Q06124 whole entry): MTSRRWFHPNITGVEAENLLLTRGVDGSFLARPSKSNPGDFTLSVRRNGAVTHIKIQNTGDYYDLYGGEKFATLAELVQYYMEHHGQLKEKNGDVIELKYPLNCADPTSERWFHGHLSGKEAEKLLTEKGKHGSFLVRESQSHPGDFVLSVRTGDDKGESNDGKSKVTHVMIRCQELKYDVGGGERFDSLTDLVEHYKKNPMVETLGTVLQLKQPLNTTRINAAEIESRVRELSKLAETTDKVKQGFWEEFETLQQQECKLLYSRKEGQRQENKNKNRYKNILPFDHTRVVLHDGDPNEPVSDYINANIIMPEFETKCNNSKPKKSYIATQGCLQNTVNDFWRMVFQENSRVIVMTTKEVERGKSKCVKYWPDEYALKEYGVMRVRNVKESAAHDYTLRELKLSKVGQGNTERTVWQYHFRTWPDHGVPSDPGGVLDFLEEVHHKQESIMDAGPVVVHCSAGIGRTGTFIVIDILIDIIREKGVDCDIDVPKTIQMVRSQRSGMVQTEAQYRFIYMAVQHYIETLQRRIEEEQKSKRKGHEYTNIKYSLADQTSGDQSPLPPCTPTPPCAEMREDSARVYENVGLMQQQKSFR
Experiment: SHP2 Biochemical Assay (DiFMUP conversion, pIRS1-activated)
Details: Table 19; head prints unit as "-M"
pIC50: −log10 of the molar value.
Recorded measurements of pIC50, one per entry
observed_property: pIC50

>  <smiles>
Cn1cc2c(Cl)c(-c3c[nH]c4nc(N5C6CCC5CNC6)n(C)c(=O)c34)ccc2n1

>  <tgt>
SHP2 (Homo sapiens (Human))

>  <observed_value>
7.85

$$$$
>  <smiles>
CCn1nc2ccc(-c3c[nH]c4nc(N5[C@H]6CC[C@@H]5[C@H](N)C6)n(C)c(=O)c34)c(Cl)c2c1OC

>  <tgt>
SHP2 (Homo sapiens (Human))

>  <observed_value>
8.05

$$$$
>  <smiles>
CCn1cc2c(Cl)c(-c3c[nH]c4nc(N5CCC6(CC5)COC[C@H]6N)n(C)c(=O)c34)ccc2n1

>  <tgt>
SHP2 (Homo sapiens (Human))

>  <observed_value>
7.96

$$$$
>  <smiles>
CCn1cc2c(Cl)c(-c3c[nH]c4nc(N5[C@H]6CC[C@@H]5[C@H](NC)C6)n(C)c(=O)c34)ccc2n1

>  <tgt>
SHP2 (Homo sapiens (Human))

>  <observed_value>
8.00

$$$$
>  <smiles>
CCn1cc2c(Cl)c(-c3c[nH]c4nc(N5CCC6(CC5)CO[C@@H](C)[C@H]6N)n(C)c(=O)c34)ccc2n1

>  <tgt>
SHP2 (Homo sapiens (Human))

>  <observed_value>
7.92

$$$$
>  <smiles>
Cc1nc2ccc(-c3c[nH]c4nc(N5C6CCC5CNC6)n(C)c(=O)c34)c(Cl)c2s1

>  <tgt>
SHP2 (Homo sapiens (Human))

>  <observed_value>
7.92

$$$$
>  <smiles>
CN(C)C(=O)Cn1nc2ccc(-c3c[nH]c4nc(N5C6CCCC5CNC6)n(C)c(=O)c34)c(Cl)c2c1Cl

>  <tgt>
SHP2 (Homo sapiens (Human))

>  <observed_value>
7.85

$$$$
